For each entry below, report its EC50 (read off the curve) value.
# ASSAYED SYSTEM: T1, cynomolgus monkey TSLP (cynomolgus monkey, UniProt A0A7N9CAT7 29-159)
# T1 construct: also called cynomolgus TSLP; recombinant cynomolgus monkey TSLP
# T1 sequence (A0A7N9CAT7 entry or part of it): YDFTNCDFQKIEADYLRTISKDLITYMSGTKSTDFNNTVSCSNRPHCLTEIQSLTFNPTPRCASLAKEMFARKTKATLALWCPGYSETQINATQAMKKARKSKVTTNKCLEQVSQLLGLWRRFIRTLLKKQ
# MEASUREMENT DESCRIPTION: ELISA, plate coated with cynomolgus monkey TSLP, test antibodies as human IgG1

Field: example entries. Status: answers known.
BINDER	OBS VALUE
TSLP-0201 (antibody, V domains shown) VH: QVQLVQSGAEVKKPGSSVKVSCKASGFTFGSYGINWVRQAPGQGLEWMGVIVPLVGVTIYAEKFQGRVTITADTSTSTAYMELSSLRSEDTAVYYCARGQEYFYWYFDLWGQGTLVTVSS VL: QSALTQPPSASGSPGQSVTISCSGSSSDIGGYNRVSWYQQHPGKAPKLMIYDVSKRPSGVPDRFSGSKSGNTASLTVSGLQAEDEADYYCSSYAGTDTFILFGGGTKLTVL	~0.7 µg/mL
TSLP-02 (antibody, V domains shown, also called parent antibody TSLP-02) VH: QVQLVQSGAEVKKPGSSVKVSCKASGFTFGSYGINWVRQAPGQGLEWLGVIVPLVGVTIYAEKFQGRVTITADTSTSTAYMELSSLRSEDTAVYYCARGQEYFYWYFDLWGQGTLVTVSS VL: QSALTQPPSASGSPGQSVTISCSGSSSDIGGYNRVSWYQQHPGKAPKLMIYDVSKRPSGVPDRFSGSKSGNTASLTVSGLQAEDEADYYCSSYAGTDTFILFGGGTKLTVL	~0.7 µg/mL
TSLP-0204 (antibody, V domains shown) VH: QVQLVQSGAEVKKPGSSVKVSCKASGFTFGSYGINWVRQAPGQGLEWLGVIVPLVGVTIYAEKFQGRVTITADTSTSTAYMELSSLRSEDTAVYYCARGQEYFYWYFDLWGQGTLVTVSS VL: QSALTQPPSASGSPGQSVTISCTGTSSDIGGYNRVSWYQQHPGKAPKLMIYEVNKRSSGVPDRFSGSKSGNTASLTVSGLQAEDEADYYCTSYAGTDTFVLFGGGTKLTVL	~0.2 µg/mL

# context switch: different binder, same EC50 (read off the curve)
Query string: // EC50 (read off the curve) lookup, key: TSLP-0203 (antibody, V domains shown) VH: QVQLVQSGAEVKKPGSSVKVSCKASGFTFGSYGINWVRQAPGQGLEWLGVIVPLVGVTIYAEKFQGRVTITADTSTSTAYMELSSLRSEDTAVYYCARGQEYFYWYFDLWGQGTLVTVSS VL: QSALTQPPSASGSPGQSVTISCTGTSSDIGGYDRVSWYQQHPGKAPKLMIYGVSKRPSGVPDRFSGSKSGNTASLTVSGLQAEDEADYYCSSYASGHTFGLFGGGTKLTVL
Result string: ~0.3 µg/mL
